These measurements were taken from paper PMC9235362.

Target: human 5-HT1ARs (Homo sapiens)
Sequence (P08908 whole entry): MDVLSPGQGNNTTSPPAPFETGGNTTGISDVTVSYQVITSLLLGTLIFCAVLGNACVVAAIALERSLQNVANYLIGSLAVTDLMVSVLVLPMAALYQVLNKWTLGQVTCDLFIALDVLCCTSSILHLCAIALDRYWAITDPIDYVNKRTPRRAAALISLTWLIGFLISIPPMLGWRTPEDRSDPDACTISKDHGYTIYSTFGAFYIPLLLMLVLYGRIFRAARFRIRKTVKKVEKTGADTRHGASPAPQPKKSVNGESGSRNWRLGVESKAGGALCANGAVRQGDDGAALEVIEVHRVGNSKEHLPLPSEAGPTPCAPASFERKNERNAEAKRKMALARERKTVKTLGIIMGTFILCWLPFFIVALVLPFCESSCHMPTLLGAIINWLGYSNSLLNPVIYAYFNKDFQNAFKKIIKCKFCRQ
Experiment: In vitro 5-HT1A receptor cAMP signaling
Assay type: cell-based
PROPERTY_NAME: pEC50
Please express pEC50 as -log10 of the molar concentration.

| COMPOUND_STRUCTURE | pEC50 |
| --- | --- |
| CC[C@H]1CN2CCc3c([nH]c4cccc(O)c34)[C@@H]2C[C@@H]1/C(=C\OC)C(=O)OC | 6.08 |

Now consider a different compound.
Prompt: Form field: pEC50 recorded for C=C[C@H]1CN2CCc3c([nH]c4cccc(O)c34)[C@@H]2C[C@@H]1/C(=C\OC)C(=O)OC with human 5-HT1ARs (Homo sapiens) (enter value)
Response: 6.06

###

Target: human 5-HT2B receptors (Homo sapiens)
Sequence (P41595 whole entry): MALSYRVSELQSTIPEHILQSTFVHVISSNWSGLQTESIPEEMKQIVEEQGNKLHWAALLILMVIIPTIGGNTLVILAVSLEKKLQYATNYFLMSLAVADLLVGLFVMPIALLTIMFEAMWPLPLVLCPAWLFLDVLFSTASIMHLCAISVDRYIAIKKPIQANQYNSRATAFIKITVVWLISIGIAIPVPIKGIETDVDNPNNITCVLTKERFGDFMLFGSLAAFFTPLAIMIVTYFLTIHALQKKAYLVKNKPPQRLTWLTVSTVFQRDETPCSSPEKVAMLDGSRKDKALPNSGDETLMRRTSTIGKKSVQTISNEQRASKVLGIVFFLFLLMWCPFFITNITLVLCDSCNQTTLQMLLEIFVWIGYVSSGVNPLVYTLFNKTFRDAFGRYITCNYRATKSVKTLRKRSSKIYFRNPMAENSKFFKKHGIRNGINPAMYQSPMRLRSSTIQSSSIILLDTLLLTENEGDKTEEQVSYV
Assay: 5-HT2B receptor phosphoinositide hydrolysis
Type: cell-based
Details: Imax is the percent maximum SB 206553, inverse agonist, response; value (SEM); N.A. = no activation or inactivation up to 30 μM
PROPERTY_NAME: 5-HT2B E/Imax (Imax)

Here's what some known entries look like.
| COMPOUND | ASSAY_VALUE |
| --- | --- |
| CC[C@H]1CN2CCc3c([nH]c4cccc(O)c34)[C@@H]2C[C@@H]1/C(=C\OC)C(=O)OC | 45 (14.3) % |
| C=C[C@H]1CN2CCc3c([nH]c4cccc(O)c34)[C@@H]2C[C@@H]1/C(=C\OC)C(=O)OC | 38 (10.3) % |
| CC[C@H]1CN2CCc3c([nH]c4cccc(OC)c34)[C@@H]2C[C@@H]1/C(=C\OC)C(=O)OC | 24.8 (6.9) % |

Now consider a different compound.
Prompt: Consider the compound Cn1ccc2cc3c(cc21)CCN3C(=O)Nc1cccnc1 [SB 206553, reference compound] and give its measured 5-HT2B E/Imax (Imax).
Response: 100%

###

Biological target: human 5-HT2B receptors (Homo sapiens)
Test: 5-HT2B receptor phosphoinositide hydrolysis
PROPERTY_NAME: pEC50
Please express pEC50 as -log10 of the molar concentration.

Here's what some known entries look like.
| MOLECULE | pEC50 |
| --- | --- |
| CC[C@H]1CN2CCc3c([nH]c4cccc(O)c34)[C@@H]2C[C@@H]1/C(=C\OC)C(=O)OC [9-O-desmethylspeciogynine (gambirine)] | 5.83 |
| C=C[C@H]1CN2CCc3c([nH]c4cccc(O)c34)[C@@H]2C[C@@H]1/C(=C\OC)C(=O)OC [9-O-desmethylpaynantheine (gambireine)] | 5.63 |
| Cn1ccc2cc3c(cc21)CCN3C(=O)Nc1cccnc1 [SB 206553, reference compound] | 7.81 |

Now consider a different molecule.
Prompt: Form field: pEC50 recorded for CC[C@H]1CN2CCc3c([nH]c4cccc(OC)c34)[C@@H]2C[C@@H]1/C(=C\OC)C(=O)OC [speciogynine] with human 5-HT2B receptors (Homo sapiens) (enter value)
Response: 5.70

###

The entries below come with measured 5-HT1A E/Imax values attached.
Target: human 5-HT1ARs (Homo sapiens)
Experiment: In vitro 5-HT1A receptor cAMP signaling
Format: cell-based
Conditions: Emax is the percent maximum serotonin, agonist, response; value (SEM); N.A. = no activation or inactivation up to 30 μM

Here's what some known entries look like.
| COMPOUND | 5-HT1A E/Imax |
| --- | --- |
| C=C[C@H]1CN2CCc3c([nH]c4cccc(O)c34)[C@@H]2C[C@@H]1/C(=C\OC)C(=O)OC [9-O-desmethylpaynantheine (gambireine)] | 100 (0.08) % |
| O=C1c2ccccc2S(=O)(=O)N1CCCCN1CCN(c2ncccn2)CC1 [ipsapirone, reference compound] | 82 (0.1) % |
| NCCc1c[nH]c2ccc(O)cc12 [serotonin, reference compound] | 100% |

Now consider a different compound.
Prompt: Consider the compound CC[C@H]1CN2CCc3c([nH]c4cccc(O)c34)[C@@H]2C[C@@H]1/C(=C\OC)C(=O)OC [9-O-desmethylspeciogynine (gambirine)] and give its measured 5-HT1A E/Imax.
Response: 99 (0.08) %
